- target_system: Vasopressin V1a receptor (Rattus norvegicus)
- Sequence (P30560 whole entry): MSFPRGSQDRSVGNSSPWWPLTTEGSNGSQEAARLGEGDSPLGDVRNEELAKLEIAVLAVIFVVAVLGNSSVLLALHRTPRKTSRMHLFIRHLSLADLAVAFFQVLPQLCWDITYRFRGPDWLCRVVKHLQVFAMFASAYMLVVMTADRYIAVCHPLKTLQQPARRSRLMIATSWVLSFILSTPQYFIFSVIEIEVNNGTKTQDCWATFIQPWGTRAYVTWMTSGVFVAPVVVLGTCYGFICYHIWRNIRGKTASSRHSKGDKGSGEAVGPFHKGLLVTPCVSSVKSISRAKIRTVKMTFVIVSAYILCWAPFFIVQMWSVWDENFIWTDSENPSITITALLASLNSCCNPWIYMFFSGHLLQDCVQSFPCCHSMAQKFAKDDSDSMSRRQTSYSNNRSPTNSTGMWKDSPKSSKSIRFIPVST
- experiment: Displacement of (Phe-3,4,5-H) Vasopressin from V1a receptor from rat liver membranes.
measured_property: IC50 (µM)

Cc1cc(C(=O)N2Cc3cccn3Cc3ccccc32)ccc1NC(=O)c1ccc(Cl)cc1Cl    0.033

a = COc1cc(Cl)ccc1C(=O)Nc1ccc(C(=O)N2Cc3cccn3Cc3ccccc32)cc1
b = Cc1ccc(F)cc1C(=O)Nc1ccc(C(=O)N2Cc3cccn3Cc3ccccc32)c(Cl)c1 [LIXIVAPTAN]
[Q] Please indicate which item has the smaller measured IC50: a versus b Write down the label of the entry you select.
[A] a

====

- Organism: Homo sapiens
- experiment: Relative affinity for human vasopressin receptors V1a and V2
measured_property: Selectivity

Example molecules with recorded Selectivity:
O=C(Nc1ccc(C(=O)N2Cc3cccn3Cc3ccccc32)c(Cl)c1)c1ccc(F)cc1Cl    53
Cc1ccc(F)cc1C(=O)Nc1ccc(C(=O)N2Cc3cccn3Cc3ccccc32)c(C)c1    80
Cc1ccc(F)cc1C(=O)Nc1ccc(C(=O)N2Cc3cccn3Cc3ccccc32)c(Cl)c1    192

a = Cc1cccc(C(=O)Nc2ccc(C(=O)N3Cc4cccn4Cc4ccccc43)c(Cl)c2)c1C
b = O=C(Nc1ccc(C(=O)N2Cc3cccn3Cc3ccccc32)c(Cl)c1)c1ccc(Cl)cc1Cl
c = O=C(Nc1ccc(C(=O)N2Cc3cccn3Cc3ccccc32)c(Cl)c1)c1cccc(C(F)(F)F)c1F
[Q] Reorder: Selectivity, max to min. // ordering of labels required in reply
[A] a, c, b
(a: 860, c: 530, b: 320)

A = Cc1ccccc1C(=O)Nc1ccc(C(=O)N2Cc3cccn3Cc3ccccc32)c(Cl)c1
B = COc1cc(NC(=O)c2cc(F)ccc2C)ccc1C(=O)N1Cc2cccn2Cc2ccccc21
C = O=C(Nc1ccc(C(=O)N2Cc3cccn3Cc3ccccc32)cc1)c1ccc(F)cc1Cl
D = Cc1c(F)cccc1C(=O)Nc1ccc(C(=O)N2Cc3cccn3Cc3ccccc32)c(Cl)c1
[Q] Reorder: Selectivity, max to min. // ordering of labels required in reply
[A] D, A, B, C
(D: 284, A: 59, B: 8, C: 2)

====

- target_system: Vasopressin V2 receptor (Rattus norvegicus)
- Sequence (Q00788 whole entry): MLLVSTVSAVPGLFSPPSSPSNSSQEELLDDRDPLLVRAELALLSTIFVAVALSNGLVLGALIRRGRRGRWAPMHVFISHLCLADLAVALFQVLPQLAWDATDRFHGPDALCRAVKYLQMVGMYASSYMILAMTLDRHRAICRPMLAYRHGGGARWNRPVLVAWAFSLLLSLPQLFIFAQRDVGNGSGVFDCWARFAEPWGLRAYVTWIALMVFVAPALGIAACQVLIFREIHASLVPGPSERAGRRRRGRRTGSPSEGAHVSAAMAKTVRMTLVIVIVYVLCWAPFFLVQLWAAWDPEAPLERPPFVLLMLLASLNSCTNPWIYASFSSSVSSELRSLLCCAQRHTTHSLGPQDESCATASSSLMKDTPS
- experiment: Displacement of [3H]AVP from vasopressin V2 receptor of rat kidney medulla.
measured_property: IC50 (nM)

Example molecules with recorded IC50:
O=C(Nc1ccc(C(=O)N2Cc3cccn3Cc3ccccc32)cc1)c1ccccc1Cl    4.6
O=C(Nc1ccc(C(=O)N2Cc3cccn3Cc3ccccc32)cc1)c1ccc(Cl)cc1Cl    3.1

A = Cc1ccccc1C(=O)Nc1ccc(C(=O)N2Cc3cccn3Cc3ccccc32)cc1
B = O=C(Nc1ccc(C(=O)N2Cc3cccn3Cc3ccccc32)cc1)c1ccccc1C(F)(F)F
[Q] Please indicate which item has the smaller measured IC50: A versus B Write down the label of the entry you select.
[A] A
(A: 4.1 nM, B: 10.2 nM)

====

- target_system: Vasopressin V2 receptor (Homo sapiens)
- experiment: Displacement of [3H]AVP from human V2 receptor expressed in murine fibroblast cell line (LV2) membranes
pIC50: −log10 of the molar value.
measured_property: pIC50

Example compounds with recorded pIC50:
Cc1c(F)cccc1C(=O)Nc1ccc(C(=O)N2Cc3cccn3Cc3ccccc32)c(Cl)c1    8.72
O=C(Nc1ccc(C(=O)N2Cc3cccn3Cc3ccccc32)cc1)c1ccc(Cl)cc1Cl    8.49
COc1cc(NC(=O)c2cc(F)ccc2C)ccc1C(=O)N1Cc2cccn2Cc2ccccc21    8.70
O=C(Nc1ccc(C(=O)N2Cc3cccn3Cc3ccccc32)c(Cl)c1)c1cccc(C(F)(F)F)c1F    8.08

1 = Cc1ccc(F)cc1C(=O)Nc1ccc(C(=O)N2Cc3cccn3Cc3ccccc32)c(C)c1
2 = Cc1ccccc1C(=O)Nc1ccc(C(=O)N2Cc3cccn3Cc3ccccc32)c(Cl)c1
[Q] Which numeric pIC50 is bigger, that of 1 or that of 2 ? Write down the label of the entry you select.
[A] 2

I = Cc1ccc(F)cc1C(=O)Nc1ccc(C(=O)N2Cc3cccn3Cc3ccccc32)cc1
II = Cc1cccc(C(=O)Nc2ccc(C(=O)N3Cc4cccn4Cc4ccccc43)c(Cl)c2)c1C
III = Cc1ccc(C)c(C(=O)Nc2ccc(C(=O)N3Cc4cccn4Cc4ccccc43)c(Cl)c2)c1
[Q] Please list these in order of increasing pIC50. Thank you! // ordering of labels required in reply
[A] III, I, II
(III: 8.38, I: 8.82, II: 9.30)

====

- target_system: Vasopressin receptor (Rattus norvegicus) (UniProt P48974+P30560+Q00788)
- experiment: Relative affinity for rat vasopressin receptors V1a and V2
- Type: protein assay
measured_property: Selectivity

Example molecules with recorded Selectivity:
Cc1ccccc1C(=O)Nc1ccc(C(=O)N2Cc3cccn3Cc3ccccc32)cc1    9
COc1ccccc1C(=O)Nc1ccc(C(=O)N2Cc3cccn3Cc3ccccc32)cc1    2
O=C(Nc1ccc(C(=O)N2Cc3cccn3Cc3ccccc32)c(Cl)c1)c1ccc(Cl)cc1Cl    5
Cc1ccccc1C(=O)Nc1ccc(C(=O)N2Cc3cccn3Cc3ccccc32)c(Cl)c1    12
Cc1cccc(C(=O)Nc2ccc(C(=O)N3Cc4cccn4Cc4ccccc43)cc2)c1C    6

a = COc1cc(Cl)ccc1C(=O)Nc1ccc(C(=O)N2Cc3cccn3Cc3ccccc32)cc1
b = O=C(Nc1ccc(C(=O)N2Cc3cccn3Cc3ccccc32)cc1)c1ccc(Cl)cc1Cl
c = O=C(Nc1ccc(C(=O)N2Cc3cccn3Cc3ccccc32)cc1)c1ccccc1C(F)(F)F
[Q] Reorder: Selectivity, max to min. // ordering of labels required in reply
[A] b, c, a
(b: 7, c: 3, a: 2)

====

- Species on record: Homo sapiens
- experiment: Relative affinity for human vasopressin receptors V1a and V2
measured_property: Selectivity

O=C(Nc1ccc(C(=O)N2Cc3cccn3Cc3ccccc32)cc1)c1ccc(Cl)cc1Cl    5

a = Cc1ccc(C)c(C(=O)Nc2ccc(C(=O)N3Cc4cccn4Cc4ccccc43)c(Cl)c2)c1
b = Cc1ccc(F)cc1C(=O)Nc1ccc(C(=O)N2Cc3cccn3Cc3ccccc32)cc1Cl
c = COc1cc(C(=O)N2Cc3cccn3Cc3ccccc32)ccc1NC(=O)c1ccc(Cl)cc1Cl
[Q] Please list these in order of increasing Selectivity. Thank you! // ordering of labels required in reply
[A] b, c, a
(b: 6, c: 17, a: 81)

====

- target_system: Vasopressin V2 receptor (Homo sapiens, UniProt P30518)
- Sequence (P30518 whole entry): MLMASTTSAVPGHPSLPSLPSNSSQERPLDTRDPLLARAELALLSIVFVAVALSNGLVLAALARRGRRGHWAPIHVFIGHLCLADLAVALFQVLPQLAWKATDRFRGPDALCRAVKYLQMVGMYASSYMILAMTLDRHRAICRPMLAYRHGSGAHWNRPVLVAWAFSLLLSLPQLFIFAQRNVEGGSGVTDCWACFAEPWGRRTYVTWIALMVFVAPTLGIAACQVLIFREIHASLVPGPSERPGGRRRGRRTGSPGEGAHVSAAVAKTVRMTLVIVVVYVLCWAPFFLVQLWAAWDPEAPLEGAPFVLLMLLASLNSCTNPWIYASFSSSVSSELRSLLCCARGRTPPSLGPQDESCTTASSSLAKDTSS
- experiment: Displacement of [3H]AVP from human V2 receptor expressed in murine fibroblast cell line (LV2) membranes
pIC50: −log10 of the molar value.
measured_property: pIC50

O=C(Nc1ccc(C(=O)N2Cc3cccn3Cc3ccccc32)c(Cl)c1)c1ccc(F)cc1Cl    9.15

P = Cc1ccc(F)cc1C(=O)Nc1ccc(C(=O)N2Cc3cccn3Cc3ccccc32)c(Cl)c1
Q = O=C(Nc1ccc(C(=O)N2Cc3cccn3Cc3ccccc32)c(Cl)c1)c1ccc(Cl)cc1Cl
[Q] Please indicate which item has the smaller measured pIC50: P versus Q Write down the label of the entry you select.
[A] Q

====

- target_system: Vasopressin receptor (Rattus norvegicus) (UniProt P48974+P30560+Q00788)
- experiment: Relative affinity for rat vasopressin receptors V1a and V2
- Format: protein assay
measured_property: Selectivity

Cc1ccc(F)cc1C(=O)Nc1ccc(C(=O)N2Cc3cccn3Cc3ccccc32)c(Cl)c1 [LIXIVAPTAN]    148
Cc1c(F)cccc1C(=O)Nc1ccc(C(=O)N2Cc3cccn3Cc3ccccc32)cc1    7

a = Cc1cc(C(=O)N2Cc3cccn3Cc3ccccc32)ccc1NC(=O)c1ccc(Cl)cc1Cl
b = O=C(Nc1ccc(C(=O)N2Cc3cccn3Cc3ccccc32)cc1)c1ccccc1Cl
[Q] Which numeric Selectivity is bigger, that of a or that of b ? Write down the label of the entry you select.
[A] a
(a: 4, b: 2)
